test: xn = mol fraction of the nth substance listed; settings: 318.15 K, x1 = 0.65
value-kind: surface tension liquid-gas (mN/m)

input: Using the record for CC(=O)OCCC(C)C [3-methylbutyl ethanoate] + CCO , report its surface tension liquid-gas.
output: 21.7

input: Follow-up item: CCOC(=O)c1ccccc1 [ethyl benzoate] + CCO
output: 28.3

input: Please answer likewise for CCCC(=O)OCCC(C)C [3-methylbutyl butanoate] + CCO
output: 22.4

input: Try this compound next: CCOC(=O)Cc1ccccc1 [ethyl phenylacetate] + CCO
output: 28.4

input: One more compound: CCCCCCCC(=O)OCC [ethyl octanoate] + CCO
output: 24

input: Now try CCCCCC(=O)OCC [ethyl hexanoate] + CCO .
output: 22.9
